pKi: −log10 of the molar value.
pKi values for Histamine H3 receptor (Homo sapiens) compiled from several publications are listed below.
Endpoint Label: pKi

Below are worked cases with known answers.
CNCc1cc(C#CCCNC2CC2)ccc1Oc1ccc(Cl)c(Cl)c1 ... 7.77
CCN(CC)CCCOc1cc2c(cn1)C(c1ccc(Cl)c(Cl)c1)CN(C)C2 (centres unmarked) ... 7.80
C(=C\c1nc2ccccc2s1)/c1ccc(OCCCN2CCCCC2)cc1 ... 7.82

I = CCC(O)c1ccc(C(=O)N2CCN(C3CCC3)CC2)cc1 (centres unmarked)
II = CN(C)CCC(Oc1ccc(C(F)(F)F)cc1)c1ccc(CN2CCN(C3CCCC3)CC2)cc1 (centres unmarked)
stdin: Between I and II , whose measured pKi reads higher? Refer to your chosen item by its label in the answer.
stdout: II

* * *

Study the reported Ki values for Histamine H3 receptor (Homo sapiens) given below; they originate from different publications.
Endpoint Label: Ki (nM)

Here is how some compounds turned out for Ki.
COc1ccc(C2CN(C)Cc3cc(OCCCN4CCC(F)CC4)ccc32)cc1F (single isomer, unassigned) ... 4
CCSc1nc2cc(C(F)(F)F)ccc2n1C1CCN(C(=O)C2CCN(Cc3cnc(N)nc3)CC2)CC1 ... 44
Cc1cc(-c2cn3ccccc3n2)ccc1OCCC1CCCN1C (stereo not drawn) ... 7
Cc1ccn2cc(-c3ccc(CCCCN4CCCCCC4)cc3)nc2c1 ... 57
O=C(NCc1ccc(Cc2c[nH]cn2)cc1)Nc1cc(Cl)cc(Cl)c1 ... 15

A = COc1ccc(C2CN(C)Cc3cc(OCC4CCN(C5CCC5)CC4)ccc32)cc1F (stereo not drawn)
B = CS(=O)(=O)n1c(-c2ccc(OCc3ccncc3)cc2)cc2ccccc21
stdin: Choose between A and B : whose measured Ki value is numerically larger? Refer to your chosen item by its label in the answer.
stdout: B

P = c1ccc(OC(CCN2CCCC2)c2ccc(OCCCN3CCCCC3)cc2)cc1 (stereo not drawn)
Q = c1ccc(NCC2CCN(c3ccc(CN4CCCC4)cc3)CC2)nc1
stdin: Between P and Q , which one shows the smaller Ki number? Reply briefly: the label of your chosen item.
stdout: P

* * *

pKi: −log10 of the molar value.
Record: compiled pKi on Histamine H3 receptor (Homo sapiens, UniProt Q9Y5N1) from multiple reports.
Endpoint Label: pKi

O=C(c1ccc(CO)cc1)N1CCN(C2CC2)CC1 ... 6.23
CC(C)N1CCN(Cc2ccc(C(CCN(C)C)Oc3ccccc3)cc2)CC1 (stereo not drawn) ... 9.00
COc1ccc(C2CN(C)Cc3cc(OCCCN4CCCC(O)C4)ccc32)cc1 (mixture of isomers) ... 8.70
CSc1nc2cccnc2n1C1CCN(C(=O)C2(F)CCN(Cc3cnc(N)nc3)CC2)CC1 ... 8.30
c1cc(N2CCC(CN3CCCC3)CC2)ccc1CN1CCCCC1 ... 8.70

I = CC(C)N1CCCN(C(=O)c2ccc(C(=O)C3CCCCC3)cc2)CC1
II = CC(C)C(O)c1ccc(C(=O)N2CCN(C3CC3)CC2)cc1 (stereo not drawn)
III = COc1ccc(OC(CCN(C)C)c2ccc(C#CCCN3CCSCC3)cc2)cc1 (stereo not drawn)
stdin: Order each entry by recorded pKi, climbing from the minimum. Order the labels as requested and list them.
stdout: II, III, I

* * *

Across several publications, the following pKi results were reported for Histamine H3 receptor (Homo sapiens).
pKi: −log10 of the molar value.

Here are 3 molecules together with their reported answers.
C[C@@H]1CCCN1CCCOc1ccc(C(=O)CN2CCN(C(=O)N(C)C)CC2)cc1F ... 7.00 to 10.00
CC(C)(CN)CNc1ccnc(N)n1 ... < 6.47
C[C@@H]1CCCN1CCCOc1ccc(C(=O)CN2CCN(C)C(=O)C2)cc1 ... 7.00 to 10.00

Consider now this further molecule.
stdin: For `Cn1nc(-c2ccc(C(=O)N3CCN4CCC[C@H]4C3)cc2)ccc1=O` , what is its reported pKi?
stdout: 6.00 to 7.00

* * *

Let's look at some pKi data for Histamine H3 receptor (Homo sapiens) that I collected from the literature.
pKi: −log10 of the molar value.

Cc1cc(C(=O)CN2CCN(C(=O)c3ccccc3)CC2)cc(C)c1OCCCN1CCC[C@H]1C ... 7.00 to 10.00
O=C1CCC(c2ccc3c(c2)CCC2(CCN(C4CCC4)CC2)O3)=NN1 ... > 6.70
C[C@@H]1CCCN1CCCOc1ccc(-n2c(C(=O)N3CCCC3)cc3ccccc32)cc1 ... > 8.00
C[C@@H]1CCCN1CCCOc1c(Cl)cc(C(=O)CN2CCN(C(=O)C3CCCCC3)CC2)cc1Cl ... 7.00 to 10.00
c1ccc(NCc2ccc(N3CCC(N4CCCCC4)CC3)cc2)nc1 ... 8.08

Consider now this further compound.
stdin: I would be grateful if you could share the reported pKi for `CS(=O)(=O)N1CCN(CCCOc2ccc(C(=O)CN3CCOCC3)cc2)CC1` .
stdout: < 6.00

* * *

Note to self: these compounds have pKi reported for Histamine H3 receptor (Homo sapiens, UniProt Q9Y5N1) in various publications.
pKi: −log10 of the molar value.

CC(C)(C)OC(=O)N1CCC(CNc2ccnc(N)n2)CC1 ... < 6.45
C[C@@H]1CCCN1CCCOc1ccc(C(=O)CN2CCN(S(C)(=O)=O)CC2)cc1 ... 7.00 to 10.00
CC(C)(C)OC(=O)N1CC[C@@H](Nc2ccnc(N)n2)C1 ... < 6.44

stdin: // query pKi value for entry `O=c1ccc(-c2ccc3c(c2)CCN(C2CCC2)CC3)n[nH]1`
stdout: > 7.00

stdin: # get_value(readout='pKi', item= `O=C(c1ccc(-c2ccc(=O)[nH]n2)cc1)N1CCC[C@H]1CN1CCCC1` )
stdout: > 7.00

stdin: Given the compound `C[C@@H]1CCCN1CCCOc1ccc(C(=O)CN2CCN(C(=O)c3ccccc3)CC2)cc1` , what is its reported pKi?
stdout: 7.00 to 10.00

stdin: Field request: pKi | item: `C[C@@H]1CCCN1CCCOc1ccc(C(=O)CN2CCN(S(C)(=O)=O)CC2)cc1F`
stdout: 7.00 to 10.00

stdin: Item `C[C@@H]1CCCN1CCCOc1ccc(-n2c(C(=O)NC3CCCC3)cc3ccccc32)cc1` has what recorded pKi?
stdout: > 8.00

* * *

Kindly find below pKi information for Histamine H3 receptor (Homo sapiens) taken from the literature.
pKi: −log10 of the molar value.
Endpoint Label: pKi

P = CCC(O)c1ccc(C(=O)N2CCN(C(C)C)CC2)cc1 (stereo not shown)
Q = C(=C\c1nc2ccccc2o1)/c1ccc(OCCCN2CCCCC2)cc1
stdin: // pick min by pKi: P , Q Answer format: the label of the selected item.
stdout: P

I = CN(C)CCC(Oc1ccc(C#CCCN2CCSCC2)cc1)c1ccccc1 (stereo not shown)
II = O=C(/C=C/c1ccc(Cc2c[nH]cn2)cc1)NCCc1ccc(Cl)cc1
III = COc1cc(-c2cn3ccc(C)cc3n2)ccc1OCCCN1CCCCCC1
IV = CNCc1cc(C#CCCN2CCN(C(C)C)C(=O)C2)ccc1Oc1ccc(SC)cc1
stdin: Order the records, beginning with the lowest pKi and ending with the highest. Rank the items, then write their labels in that order.
stdout: IV, III, I, II
(IV: 5.73, III: 7.47, I: 7.74, II: 8.15)

* * *

pKi values for Histamine H3 receptor (Homo sapiens), compiled from several publications.
pKi: −log10 of the molar value.

# annotated cases, reported pKi shown
CC(C)N1CCC2(CCc3cc(C4=NNC(=O)C(C)(C)C4)ccc3O2)CC1 ... > 6.70
Cc1cc(C(=O)CN2CCN(c3ncccn3)CC2)cc(C)c1OCCCN1CCC[C@H]1C ... 6.30 to 7.00

Here is the next item to consider.
stdin: Hi! What's the reported pKi for `CN(CCc1ccc(-c2ccc(=O)n(C)n2)cc1)C1CCC1` on Histamine H3 receptor (Homo sapiens)?
stdout: > 7.00

* * *

Assembled from different publications: pKi for Histamine H3 receptor (Homo sapiens, UniProt Q9Y5N1).
pKi: −log10 of the molar value.

C[C@@H]1CCCN1CCCOc1ccc(C(=O)CN2CCN(c3ccccc3)CC2)cc1 ... 7.00 to 10.00
CN1CCN(c2cc(/C=C/c3ccccc3)c(C(F)(F)F)nn2)CC1 ... < 5.00
C[C@@H]1CCCN1CCCOc1ccc(-n2c(C(=O)NC3CCCCC3)cc3ccccc32)cc1 ... > 7.00
COc1ccc2c(c1)cc(C(=O)N1CCCC1)n2-c1ccc(OCCCN2CCC[C@H]2C)cc1 ... > 8.00
CC(=O)N1CCN(CCc2ccc(-c3ccc(=O)n(C)n3)cc2)CC1 ... 6.00 to 7.00
C[C@@H]1CCCN1CCCOc1ccc(C(=O)CN2CCCC2=O)cc1 ... 7.00 to 10.00
C[C@@H]1CCCN1CCCOc1c(Cl)cc(C(=O)CN2CCN(C(=O)c3ccccc3)CC2)cc1Cl ... 7.00 to 10.00
C[C@@H]1CCCN1CCCOc1ccc(C(=O)CN2CCN(C(=O)c3ccc4ccccc4n3)CC2)cc1 ... 7.00 to 10.00

stdin: Need pKi of `Cc1cc(C(=O)CN2CCC(F)(F)CC2)ccc1OCCCN1CCC[C@H]1C` , thanks.
stdout: 7.00 to 10.00
